test system: 556581-035-R-J1-PDC spheroids with HUVEC/MSC, viability; experiment: Anticancer human tumor 556581-035-R-J1-PDC patient-derived ovarian carcinoma cell line growth inhibition [IpAb]; conditions: second compound 0.316 µM; first compound 0.0316 µM; hits give low values
Endpoint name: viability, T/C

Sample answers from the record:
Fill in the recorded viability, T/C for this compound, with 556581-035-R-J1-PDC spheroids with HUVEC/MSC, viability as test system: CCCS(=O)(=O)Nc1ccc(F)c(C(=O)c2c[nH]c3ncc(-c4ccc(Cl)cc4)cc23)c1F + CCN1CCN(Cc2ccc(Nc3ncc(F)c(-c4cc(F)c5nc(C)n(C(C)C)c5c4)n3)nc2)CC1 105%

Fill in the recorded viability, T/C for this compound, with 556581-035-R-J1-PDC spheroids with HUVEC/MSC, viability as test system: Cn1ncc(Cl)c1-c1cc(C(=O)NC(CN)Cc2cccc(F)c2)sc1Cl (configuration not stated) + CCN1CCN(Cc2ccc(Nc3ncc(F)c(-c4cc(F)c5nc(C)n(C(C)C)c5c4)n3)nc2)CC1 88.5%

Parameter requested: viability, T/C. Apply to each item below.
1. Cn1nccc1Nc1nccc(-c2ccn(C(CO)c3ccc(Cl)c(F)c3)c(=O)c2)n1 (configuration not stated) + CC(C)NCC(C(=O)N1CCN(c2ncnc3c2C(C)CC3O)CC1)c1ccc(Cl)cc1
2. COc1c(OCCCN2CCOCC2)ccc2c3n(c(=NC(=O)c4cnc(N)nc4)nc12)CCN3 + CCN1CCN(Cc2ccc(Nc3ncc(F)c(-c4cc(F)c5nc(C)n(C(C)C)c5c4)n3)nc2)CC1
3. Cn1ncc(Cl)c1-c1cc(C(=O)NC(CN)Cc2cccc(F)c2)sc1Cl (configuration not stated) + CC(C)NCC(C(=O)N1CCN(c2ncnc3c2C(C)CC3O)CC1)c1ccc(Cl)cc1
4. C=CC(=O)N1CCN(c2nc(=O)n(-c3c(C)ccnc3C(C)C)c3nc(-c4c(O)cccc4F)c(F)cc23)C(C)C1 (configuration not stated) + CC(C)NCC(C(=O)N1CCN(c2ncnc3c2C(C)CC3O)CC1)c1ccc(Cl)cc1

61.6%
41.2%
37.8%
79.8%

Fill in the recorded viability, T/C for this compound, with 556581-035-R-J1-PDC spheroids with HUVEC/MSC, viability as test system: C=CCn1c(=O)c2cnc(Nc3ccc(N4CCN(C)CC4)cc3)nc2n1-c1cccc(C(C)(C)O)n1 + CC(C)NCC(C(=O)N1CCN(c2ncnc3c2C(C)CC3O)CC1)c1ccc(Cl)cc1 94.4%

* * *

system: 556581-035-R-J1-PDC spheroids with HUVEC/MSC, viability; assay: Anticancer human tumor 556581-035-R-J1-PDC cell line growth inhibition [IpAb]; settings: second compound 0.316 µM; first compound 10 µM; hits give low values;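 note: spheroids exposed to compounds for 7 days before readout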
I'd be grateful if you could share measured viability, T/C for these entries.
One number for each entry, in %.

Sample answers from the record:
Fill in the recorded viability, T/C for this molecule, with 556581-035-R-J1-PDC spheroids with HUVEC/MSC, viability as test system: CCCS(=O)(=O)Nc1ccc(F)c(C(=O)c2c[nH]c3ncc(-c4ccc(Cl)cc4)cc23)c1F + CCN1CCN(Cc2ccc(Nc3ncc(F)c(-c4cc(F)c5nc(C)n(C(C)C)c5c4)n3)nc2)CC1 57.6

Fill in the recorded viability, T/C for this molecule, with 556581-035-R-J1-PDC spheroids with HUVEC/MSC, viability as test system: Cn1ncc(Cl)c1-c1cc(C(=O)NC(CN)Cc2cccc(F)c2)sc1Cl (stereo unspecified) + CCN1CCN(Cc2ccc(Nc3ncc(F)c(-c4cc(F)c5nc(C)n(C(C)C)c5c4)n3)nc2)CC1 12.4

Fill in the recorded viability, T/C for this molecule, with 556581-035-R-J1-PDC spheroids with HUVEC/MSC, viability as test system: Cc1nc(NC(=O)N2CCCC2C(N)=O)sc1-c1ccnc(C(C)(C)C(F)(F)F)c1 (stereo unspecified) + CCN1CCN(Cc2ccc(Nc3ncc(F)c(-c4cc(F)c5nc(C)n(C(C)C)c5c4)n3)nc2)CC1 11.3

Parameter requested: viability, T/C. Apply to each item below.
1. C=CC(=O)N1CCN(c2nc(=O)n(-c3c(C)ccnc3C(C)C)c3nc(-c4c(O)cccc4F)c(F)cc23)C(C)C1 (stereo unspecified) + CC(C)NCC(C(=O)N1CCN(c2ncnc3c2C(C)CC3O)CC1)c1ccc(Cl)cc1
2. Cc1nc(NC(=O)N2CCCC2C(N)=O)sc1-c1ccnc(C(C)(C)C(F)(F)F)c1 (stereo unspecified) + CC(C)NCC(C(=O)N1CCN(c2ncnc3c2C(C)CC3O)CC1)c1ccc(Cl)cc1

1. 35.4
2. 11.3

Fill in the recorded viability, T/C for this molecule, with 556581-035-R-J1-PDC spheroids with HUVEC/MSC, viability as test system: C=CC(=O)N1CCN(c2nc(=O)n(-c3c(C)ccnc3C(C)C)c3nc(-c4c(O)cccc4F)c(F)cc23)C(C)C1 (stereo unspecified) + CCN1CCN(Cc2ccc(Nc3ncc(F)c(-c4cc(F)c5nc(C)n(C(C)C)c5c4)n3)nc2)CC1 28.1
